The origin of these recorded values is patent US9266876B2.

# TARGET_OR_TEST_SYSTEM: CXCR3 (Homo sapiens (Human))
# Sequence (P49682 whole entry): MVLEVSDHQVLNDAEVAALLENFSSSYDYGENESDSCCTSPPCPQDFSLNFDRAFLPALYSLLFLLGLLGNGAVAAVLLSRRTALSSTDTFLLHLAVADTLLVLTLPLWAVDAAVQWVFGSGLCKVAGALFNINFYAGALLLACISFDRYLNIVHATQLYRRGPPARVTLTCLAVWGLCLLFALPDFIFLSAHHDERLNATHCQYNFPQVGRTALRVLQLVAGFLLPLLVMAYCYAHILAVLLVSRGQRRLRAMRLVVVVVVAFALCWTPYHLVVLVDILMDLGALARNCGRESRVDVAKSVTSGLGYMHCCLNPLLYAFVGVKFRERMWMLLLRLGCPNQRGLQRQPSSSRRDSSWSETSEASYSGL
# ASSAY_NOTES: Receptor internalization assay
# Assay type: cell-based
# CONDITION_PARAMETERS: read-out: Internalization IC50
# Experimental: B): Receptor Internalization Assay: Stock solutions of test compounds are made up at a concentration of 10 mM in DMSO, and serially diluted in PBS containing 0.5% BSA to concentrations required for inhibition dose response curves. Diluted compounds are then mixed with an equal volume of CXCL10 (Peprotech) diluted in PBS. […] After washing the cells with PBS containing 0.5% BSA, the samples are then analyzed in a flow cytometer (FACS Canto II, Becton Dickinson). […]
EXPERIMENTAL_ENDPOINT: IC50 (nM)

INSERT INTO measurements (smiles_data, experimental_endpoint, readout_value) VALUES
  ('Cc1nc(C)n(CC(=O)N2CCN(c3sc(C(F)(F)F)nc3-c3nc4ccc(C5CCN(C)CC5)cc4[nH]3)C[C@H]2C)n1', 'IC50', 84);
